experiment: yeast display, Sf9 membrane polyspecificity reagent, FACS + sequencing; frameworks hold sequencing errors

SEQUENCE | polyreactivity (PSR sort gate)
QVQLVESGGGLVQAGGSLRLSCAASGSIFAANAMGWYRQAPGKERELVAAITRGGRTYYADSVKGRFTISRDNAKNTVYLQMNSLKPEDTAVYYCAAYVFSKREYYRYDYWGQGTQVTVSS | high polyreactivity
QVQLVESGGGLVQAGGSLRLSCAASGSIFHTYLMGWYRQAPGKERELVASSTRSGGSTYYADSVKGRFTISRDNAKNTVYLQMNSLKPEDTAVYYCAATYRTANHRYYYWGQGTQVTVSS | high polyreactivity
QVQLVESGGGLVQAGGSLRLSCAASGRIFYYNAMGWYRQAPGKERELVAAISYRGASTYYADSVKGRFTISRDNAKNTVYLQMNSLKPEDTAVYYCAAVTISKGFYPYDYWGQGTQVTVSS | high polyreactivity

----------
assay: yeast display, Sf9 membrane polyspecificity reagent, FACS + sequencing; frameworks hold sequencing errors

SEQUENCE | polyreactivity (PSR sort gate)
QVQLVESGGGLVQAGGSPRLSCAASGRTFVFKAMGWYRQAPAKERELVAAITDTTGSTYYADSVKGRFTISRDNAKNTVYLQMNSLKPEDTAVYYCNARVYRPFYYWGQGTQVTVSS | low polyreactivity
QVQLVESVGGLVQAGGSLRLSCAASGSIFEYYAMGWYRQAPGKERELVAAITRSGGSTYYADSVKGRFTISRDNAKNTVYLQMNSLKPEDTAVYYCAVRGYSSYTYDEYYVGYDYWGQGTQVTVSS | low polyreactivity
QVQLVESGGGLVQAGGSLRLSCAASGSTFSIYGMGWYRQAPGKERELVAVITARDGSTYYADSVKGRFTISRDNAKNTVYLQMNSLKPEDTAVYYCAADIGPRYDSWGQGTQVTVSS | high polyreactivity
QVQLVESGGGLVQAGGSLRLSCAASGFTFYIYAMGWSRQAPGKERELVAAISSSGGSTYYADSVKGRFTISRDNAKNTVYLQMNSLNPEDTAVYYWNVVRYPVYRTRYYYWGQGTQVTVSS | high polyreactivity
QVQLVESGGGLVQAGGSLRLSCAASGRTFGFNAMGWYRQAPGKERELVATITTGGSTNYADSVKGRFTISRDNAKNTVYLQMNSLKPEDTAVYYCATDGWFRSGYKYFTHFYFWGQGTQVTVSS | high polyreactivity
QVQLVESGGGLVQAGGSLRLSCAASGIIFSLYAMGAYIQATGKERELVAAITTGGRTYYADSVKGRFTISRDNAKYSVYLQMNSLKPEDTAVYYCAALGPWQGGTTLSTNRGYWGQGTQVTVSS | high polyreactivity
QVQLVESGGGLVQAGGRLRLSCAASGRTFRWYAMGRYRQAPGKERELVADISSVGSTDYADSVKGRFTISRDNAKNTVYLQMNSLKPEDTAVYFCAADFSPRRYHNLSFGYWGQGTQVTVSS | low polyreactivity
QVQLVESGGGIVHAGGSLGLSCAASGRIFYSNAMGWYRQAPGKERELVAAISWNGGRTYYADSVKGRFTISRDNAKNTVYLQMKSLKPEDHAVYYCAVRYARQYYYRSGAYASRYLYNYWGQGTQVTVSS | high polyreactivity
QVQLVESGGGLVQAGGSLRLSCAASGSTLTDYAMGWYRQAPGKERELVAAITSDGDSTNYADSVKGRFTISRDNAKNTVYLQMNSLKPEDTAVYYCAAQGKYHYYVPAYEYWGQGTQVTVSS | low polyreactivity
QVQLVESGGGLVQAGGSLRLSCAASGRTFYYNVMGWYRQAPGKESELVAAITNSGSTNYADSVKGRFTISRDNAKNTVYLQMNSLKPEDTAVYYCAARITYYGRKRGSRDYWGQGTQVTVSS | high polyreactivity
QVQLVESGGGLDQAGGSLRLSWAASAFIFGLYAMGWYRQAPGKERELVAAITSVESTKYADSVKGRFTISRDHAKNTVYLQMNSLKPEDTAVYYCATDWSLEDDYWGQGTQVTVSS | low polyreactivity
QVQLVESGGGLVQAGGSLRLSCAASGRIFKNYAMGWYRQAPGKERELVAAITWSVGSTYYADSVKGRFTISRDNAKNTVYLQMNSLKPEDTAVYYCAARRSDFRGAKDGYYYWGQGTQVTVSS | low polyreactivity
QVWLQESGGGLVQACGSLRLRCAASGTISRDIFMGWYRQAPGKEREFVATIAQGGITNYADSVKGRFTISRDNAKNTVYLQMNSVKPGDTAVYYCAARDGNCYWFYYLGQGTQVTVSS | high polyreactivity
QVQLVESGGGIVKAGGSLRISCAASGSTFIVNAMGWYRQAPGKERELVAAITEDGDTTYYADSVKGRFTISRDNAKNTVYLQMNSLKPEDTAVYFCAAETYYLDDYWGQGTQVTVSS | high polyreactivity
QVQLVESGGGLVQAGGSLRLSCAASGSIFGPYAMVWYRQAPGKERELVAAISSRGSSTYYADSVKGRFTISRDNAKNTVYLQMNSLKPEDTAVYYCAALYYVYGYDYWGQGTQVTVSS | high polyreactivity
QVQLVESAGGLVQAGGSLRLICAATGLNLYVYVMGWYRQAPGKERELVAAITWSVSRTYYADSVKGRFTISRDNAKNTVYLQMNSLKPEDTAVYYCAARIPSDGYYYWGQGTQVTVSS | high polyreactivity
QVQLVESGGGLVQAGGSLRLSCAASGLIFVINAMGWYRQAPGTERELVATISSGVSTNYADSVKGRFTISRDNAKNTVYLQMNSLKPEDTAVYYCNKGQTVSRGYRLYERYVYWGQGTQVTVSS | low polyreactivity
QVQLVESGGGLVQAGGSLRLSCAASGRTFKDYAMGWYRPAPGKERELFAAISRGGSTNYADSVKGRFTISRDNAKNTVYLQVNSLKPEDTAVYYCARRYIVQSGDDYWGQGTQVTVSS | low polyreactivity
QVQLVESGGGLVQAGGSLRLSCAASGSTFIYYAMGWYRQAPGKERELVAAITSAGRTNYADSVKGRFTISRDNAKNTVYLQMNSLKPEDTAVYYCAAAYRPRKHHYDYWGQGTQVTVSS | high polyreactivity
QVQLVESRGGLVQAAGSLRLSCAASGGTFDINAMGWYRQAHGKEREFVAAISSYDDGTYYADSVKGRFTISRDNAKNTVYLQMNSLKPEDTAVYYCAAEGYYDYLYRHYYWGQGTLVTVSS | low polyreactivity
QVHHVESGGGLVQAGGSRRLSSAASRIIIDTNAMGWSSQAPGKERELVASISTRGGSTYYADSVKGRFTISRDNAKNTVYLQMISLKPANTPVYYCNAVQTYSGGYEYWGQGTQVTVSS | high polyreactivity

----------
experiment: yeast display, Sf9 membrane polyspecificity reagent, FACS + sequencing; frameworks hold sequencing errors

SEQUENCE | polyreactivity (PSR sort gate)
QVQLVESGGGLVQAGGSLRLICAASGSTYDRNVLGWYRQEPGKERELVAAISRVSSTNYADSVKGRFTISRDNAKNTVYLQMNSLKPEDTAVYYCAADRAGSIMNYWGQGTQVTVSS | low polyreactivity
QVQLVESGGGLVQAGGSLRLSCAASGLIFYRYAMGWYRQAPGKERELVAAISSGGSTYYADSVKGRFTISRDNAKNTVYLQMNSLKPEDTAVYYCADRTRVSPQIHIYRAYGYWGQGTQVTVSS | high polyreactivity
QVQLVESGGGLVQAGGSLRLSCAASGFTFKGNAMGWYRQAPGTERELVATITQSAGSTYYADSVKGRFTISRDNAKNTVYLEMNSLKPEDTAVYYCNADPITLYYYSWYNYWGQGTQVTVSS | low polyreactivity
QVQLVESGGGLVQAGGSLRLSCAASGSTFPYYVMGWYRQAPGKERELVASIRSNSGRTYYADSVKGRFTISRDNAKNTVYLQMNSLKPEDTAVYYCNAGVPRYAYTYVKGYYWGQGTQVTVSS | high polyreactivity
QVQLVESGGGVVQAGGSLRISCAASGSTFGFNAMGWYRQAPGKERELVAAINNSGDSTYYADSVKGRFTISRDNAKNTVYLQMNSLKPEDTAVYYCAAPYLGRYYKNGYWGQGTQVTVSS | low polyreactivity
QVQLVESGGCLVQAGGSLRLTCAASGFIFYRYAMGWYRHAPGKESELVAAISKSGSSTYYADSVKGRFTISRDNAKNTVYLQMNSLKPEDTAVYYCARDRQSRSLLEDDYWGQGTQVTVSS | high polyreactivity
QVQLHESGGGLVQAGGSLRMSCAASGTISVTYNKGWYRQAPGKEREFVAGNSTGATTNYADSVKGRFTISRDNAKNCVYLQMNSLKPDDTAVYYCAAHIYRQDHFYYWGQGTQVTVSS | low polyreactivity
QVQLVESGGGLVQAGGSLRLSCAASGRIIGYNAMGWYRQAPGKERELVASIRYSGGSTYYADSVKGRFTISRDNAKNTVYLQMNSLKPEDTAVYYCATRVTYRRRFDYWGQGTQVTVSS | high polyreactivity
QVQLEESGGGLVQEGGSLRLSCAASGRTFYYYDMGWYRQAPGKERELVAAITWSGGSTYYADSVKGRFTISRDNAKNTVYLQRNCLKREDTAVYYCAADVTYSRYEYWGQGSQVTVSS | low polyreactivity
QQLQESGGGLVQAGGSLRLSCAASGSISGSVLMGLYRQAPGKEREFVASISLGGNTNYADSVKGRFTISRENGKITVFLQMNSLKPEVAAVYYCAAYISLFETHPYWGQGTQVTVRS | high polyreactivity
QVQLVESGGGLVQAAGSLRLSCAASGFTLTGNAMGWYRQATGKERELVAAISRNGGSTFYADSVKGRFTISRDNAKNTVFLQMNSLKPEDTAVYYCNASRYRHSAYKYDSWGQGTQVTVSS | high polyreactivity
QVQLVESGGGLVQAGGSLRLSCAASGSIFGRYAMGLYRQAPGKERELVATISRTGGSTNYADSVKGRFTISRDNAKNTVSLQMNSLKPEDTAVYYCNAASVYANYYTYVDYYTEGFYYWGQGTQVTVSS | low polyreactivity
QVQLVESGGGLVQAGGSLRLSCAASGLTFTRYAMGWYIQAPGKEREMVAAISKNGGSTYYADSVKGRFTISRDNAKNTVYLQMNSLKPEDTAVYYCAARRSTSYPAGYDYRGQGTQVTVSS | high polyreactivity
QVQLVESGGGLVQAGGSLRLSCAASGRTFGPNVMGWYIQAPRKERELVAAITSGGTTYYADSVKGRFTISRDNANNTVYLLMNSLKPEDTAVYYCAKVLRGGRYDYWGQGTQVTVSS | low polyreactivity
QVQLVESGGGLVQAGGSLRLSCAASGRTLWLYAMGWYRQAPGKERELVAAITRSAGTTYYADSVKGRFTISRDNAKNTVYLQMNSLKPEDTAVYYCATRYPQSSLSTSSRSSSGYWGQGTQVTVSS | high polyreactivity
QVQLVESGGCIVQAGGSLRLSCAASGRTFRAYAMGWYRQAPGKEREFVAAITKRGGGTYYADSVKGRFTISRDNAKNTVYLQMNILKPEDTAVYYCAAESGSWYSRMDYWGQGTQVTVSS | high polyreactivity
QVQLVESGGGLVQAGGSLRLSCASSGFTFGVYAMGWYRTAPGKERELVAGITRGGSTNYADSVKGRFTISRDNAKNTVYLQMNSLKPEDTAVYYCAKVSYGYLRSWGRYTRGDYWGQGTQVTVSS | high polyreactivity
QVQLQESGGGLVQAGGSLRLSCAASGSISHYIFMGWYRQAPGKEREFVAGIGYGGTTNYADSVKGRFTISRDNAKNTVYLQMNSLKPEDTAVYYCAAVSIYWGQGTQVTVSS | low polyreactivity
QVQLVESGGGLVQAGGSLRLSCAASGSTFVWNAMGWYRQAPGKERELVASISSSGDRTYYADSVKGRFTISRDNAKNTVYLQMNSLKPEDTAVYYCAARYTRADYDYLGQGTQVTVSS | high polyreactivity
QVQLVESGGGLVQAGGSLRLSCAASGSTFRWYAMGWYRQAPGKERELVAAIRRIGSRTYADSVKGRFTISRDNAKNTVYLQMNSLKPEDTAVYYCATRYKYTGYDYWGQGTQVTVSS | high polyreactivity
QVQLVESGGGLVQAGGSLRLSCAASGSTFQYYAMGWYRQAPGKERELVAAISSSGGSTYYADSVKGRFTISRDYAKNTVYFQMNSQKPEDTAVYYCAKRFRRFTYTRDYWGQGTQVTVTS | high polyreactivity
